Where do the numbers come from? From patent US20190241669A1.

Biological target: T1, cynomolgus monkey BCMA (cynomolgus monkey, UniProt A0A2K5UD97 1-53)
T1 construct: Soluble analyte in SPR; construct not described; also called cyBCMA; Cyno BCMA
T1 sequence (A0A2K5UD97 entry or part of it): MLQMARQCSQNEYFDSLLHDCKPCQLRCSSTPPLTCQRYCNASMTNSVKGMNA
Assay: SPR, IgG on chip, cyBCMA analyte
Reported Kd values follow for various binders
Write it as a number; the unit nM goes unstated.

A02_Rd4_6nM_C16 (antibody, V domains shown, IgG; also called P5AC16; P5A16) VH: EVQLLESGGGLVQPGGSLRLSCAASGFTFSSYAMNWVRQAPGKGLEWVSAISDFGGSTYYADSVKGRFTISRDNSKNTLYLQMNSLRAEDTAVYYCARYWPMDIWGQGTLVTVSS VL: EIVLTQSPGTLSLSPGERATLSCRASQSVSDLYLAWYQQKPGQAPRLLMYDASIRATGIPDRFSGSGSGTDFTLTISRLEPEDFAVYYCQQYQTWPLTFGQGTKVEIK = 0.118

Determine its reported Kd: C01_Rd4_6nM_C26 (antibody, V domains shown, IgG) VH: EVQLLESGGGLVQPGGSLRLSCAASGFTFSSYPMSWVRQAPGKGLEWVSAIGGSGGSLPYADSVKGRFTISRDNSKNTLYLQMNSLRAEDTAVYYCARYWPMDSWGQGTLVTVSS VL: EIVLTQSPGTLSLSPGERATLSCRASQSVSALYLAWYQQKPGQAPRLLIYDASSRAPGIPDRFSGSGSGTDFTLTISRLEPEDFAVYYCQQYSAWPLTFGQGTKVEIK 0.419
